# System: Mus musculus
# Assay name: Anticonvulsant activity in mouse assessed as protection against maximal electroshock-induced seizures at 30 mg/kg, ip after 4 hrs
# Type: functional, organism-based
# Set-up: dose 30 mg/kg
Activity calls are given as the source filed them. The calls are words filed in the database; no cut-off is given here.
Select the correct class. Options are label 1 = active, label 0 = inactive and nothing else.

>  <Compound>
Cc1ccccc1C(=O)O/N=C(\Cn1ccnc1)c1ccc2ccccc2c1

>  <Category>
label 0

$$$$
>  <Compound>
Cc1cccc(C(=O)O/N=C(\Cn2ccnc2)c2ccc3ccccc3c2)c1

>  <Category>
label 0

$$$$

// return assay outcome for O=C(O/N=C(\Cn1ccnc1)c1ccc2ccccc2c1)c1cccc(Cl)c1 label 0

* * *

# Tested on: Mus musculus
# Assay name: Anticonvulsant activity in mouse assessed as protection against subcutaneous pentylenetetrazole-induced seizures at 30 mg/kg, ip after 4 hrs
# Format: functional, organism-based
# Design: dose 30 mg/kg
Activity calls are given as the source filed them. The calls are words filed in the database; no cut-off is given here.
Entry note: the call must match one of active, inactive

Reference set, count: 3
>  <Compound>
NC(=O)N1c2ccccc2C=Cc2ccccc21 [CARBAMAZEPINE]

>  <Target>
Mus musculus

>  <Category>
inactive

$$$$
>  <Compound>
Cc1ccccc1C(=O)O/N=C(\Cn1ccnc1)c1ccc2ccccc2c1

>  <Target>
Mus musculus

>  <Category>
inactive

$$$$
>  <Compound>
COc1ccccc1C(=O)O/N=C(\Cn1ccnc1)c1ccc2ccccc2c1

>  <Target>
Mus musculus

>  <Category>
inactive

$$$$

Hey, what did the test say about O=C(O/N=C(\Cn1ccnc1)c1ccc2ccccc2c1)c1ccccc1Cl ? inactive

Outcome? COc1ccc(C(=O)O/N=C(\Cn2ccnc2)c2ccc3ccccc3c2)cc1 inactive

For CCCC(CCC)C(=O)[O-].[Na+] [VALPROATE SODIUM] , which call appears in the assay record? inactive

* * *

# System: Mus musculus
# Assay name: Neurotoxicity in mouse assessed as motor impairment at 300 mg/kg, ip after 0.5 hrs by rotarod test
# Format: toxicity, organism-based
# Parameters: dose 300 mg/kg, route intraperitoneal
# Protocol conditions: in vivo
Reported metric: Activity

Sample answers from the record:
>  <Compound>
CCCCCC(=O)O/N=C(\Cn1ccnc1)c1ccc2ccccc2c1.Cl

>  <Target>
Mus musculus

>  <Reported metric>
Activity

>  <Measured value>
Non-toxic

$$$$
>  <Compound>
CCCC(CCC)C(=O)[O-].[Na+] [VALPROATE SODIUM]

>  <Target>
Mus musculus

>  <Reported metric>
Activity

>  <Measured value>
Non-toxic

$$$$
>  <Compound>
O=C(O/N=C(\Cn1ccnc1)c1ccc2ccccc2c1)c1ccccc1Cl

>  <Target>
Mus musculus

>  <Reported metric>
Activity

>  <Measured value>
Non-toxic

$$$$
>  <Compound>
CC(C)CC(=O)O/N=C(\Cn1ccnc1)c1ccc2ccccc2c1.Cl

>  <Target>
Mus musculus

>  <Reported metric>
Activity

>  <Measured value>
Non-toxic

$$$$
>  <Compound>
NC(=O)N1c2ccccc2C=Cc2ccccc21 [CARBAMAZEPINE]

>  <Target>
Mus musculus

>  <Reported metric>
Activity

>  <Measured value>
Toxic

$$$$

Recall the recorded Activity for COc1cccc(C(=O)O/N=C(\Cn2ccnc2)c2ccc3ccccc3c2)c1 with Mus musculus and state it. Non-toxic

* * *

# Tested on: Mus musculus
# Assay name: Anticonvulsant activity in mouse assessed as protection against maximal electroshock-induced seizures at 300 mg/kg, ip after 4 hrs
# Format: functional, organism-based
# Parameters: dose 300 mg/kg
Active and inactive are the calls of the source. The calls are words filed in the database; no cut-off is given here.
Field 'call' accepts yes for active, no for inactive

Solved cases below.
>  <Compound>
O=C(CCC(=O)c1ccccc1)O/N=C(\Cn1ccnc1)c1ccc2ccccc2c1

>  <Category>
no

$$$$
>  <Compound>
CCCC(CCC)C(=O)[O-].[Na+] [VALPROATE SODIUM]

>  <Category>
no

$$$$
>  <Compound>
O=C(O/N=C(\Cn1ccnc1)c1ccc2ccccc2c1)c1ccccc1

>  <Category>
yes

$$$$
>  <Compound>
O=C(O/N=C(\Cn1ccnc1)c1ccc2ccccc2c1)c1cccc(Cl)c1

>  <Category>
yes

$$$$

Field: outcome | Entry: O=C1NC(=O)C(c2ccccc2)(c2ccccc2)N1 [PHENYTOIN] yes

Test call, this compound: COc1cccc(C(=O)O/N=C(\Cn2ccnc2)c2ccc3ccccc3c2)c1 no

Please let me know the test result on file for Cl.O=C(/C=C/c1ccccc1)O/N=C(\Cn1ccnc1)c1ccc2ccccc2c1 . no

// outcome(item) with item = CCC(=O)O/N=C(\Cn1ccnc1)c1ccc2ccccc2c1.Cl no

Dear colleague, could you share the recorded outcome for CC(C)CC(=O)O/N=C(\Cn1ccnc1)c1ccc2ccccc2c1.Cl when you have a moment? yes
